system: Human papillomavirus type 1a E7 protein (residues 1-88); assay: HPV1a E7 small-molecule binders, primary screen, biochemical, small-molecule microarray, residues 1-88, 635 nm (AID 1129); conditions: small-molecule microarray binding, fluorescence 635 nm; higher = more signal
composite z-score values for the compounds below.
Output: the number by itself.

{"COMPOUND": "C[C@H]1C2=C3C(CC[C@H]4C(OCc5ccc(F)cc5C(F)(F)F)OC[C@](C)([C@@H]34)N(C(=O)OC(C)(C)C)C2)C2COC(=O)OCC21 (some centres undefined)", "TARGET OR TEST SYSTEM": "Human papillomavirus type 1a E7 protein (residues 1-88)", "composite z-score": 1.16}

For reference, reported composite z-score for CCOC(=O)C[C@H]1[C@H](OC(=O)c2ccc(C(=O)c3ccccc3)cc2)[C@@H](NC(=O)c2ccc3ccccc3c2)c2cc(OCCCO)ccc2N1C(=O)c1ccccc1 stands at 1.13

For reference, reported composite z-score for C=C(COC)/C(=C/C[C@@H](OC(=O)c1ccncc1)c1cccc(OCCO)c1)c1cnc2ccccc2c1 stands at 1.17

For reference, reported composite z-score for COc1ccc([Si](C)(C)[C@@H]2[C@@H](CC(=O)N3CCC[C@H]3CO)O[C@]3(C(=O)N(Cc4ccc(N5C(=O)c6cccc7cccc5c67)cc4)c4ccccc43)[C@H]2C)cc1 stands at 1.2

---

experiment: binders of probe aFSTL3 on microarray, primary screen, stem cell growth factor project, biochemical, small-molecule microarray, fluorescence 635/667 (AID 1064); details: higher = more signal;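 further: measures binding of the biotinylated anti-FSTL3 antibody to printed compounds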
REPORTED PROPERTY: composite z-score
Output: the number by itself.

# example entries with known answers
{"COMPOUND": "COC(=O)c1c(CC[C@@H](CO)NC(=O)N[C@H](Cn2cc(-c3ccccc3C)nn2)C(C)C)oc(C(C)=O)c1C(=O)OC", "NUMBER": -0.157}
{"COMPOUND": "CCOC(=CC(=O)OC)CC(O)c1cccc(Cl)c1 (stereo not given)", "NUMBER": 0.201}
{"COMPOUND": "CC(C)CN1C(=O)[C@@]2(c3ccc([N+](=O)[O-])cc3)CC(=O)N(CC34CC5CC(CC(C5)C3)C4)[C@@H]2c2ccc(CO)cc21", "NUMBER": 0.311}
{"COMPOUND": "CN1C(=O)C2C=CC(C(O)C3CCCCC3)N(N3CCCCC3)C2C1=O (stereo not given)", "NUMBER": -0.0863}

# evaluate next
For reference, reported composite z-score for COC(=O)C1(Cc2ccccc2)C=C2C(=C(C(C)C)C(=O)C2C)CN1 (stereo not given) stands at 1.63

---

assay: cell viability in Huh7 cells, primary screen, cytotoxicity control for HCV replication inhibitor project, CellTiter-Glo luminescence, basal, 48 h (AID 1143); details: Huh7 HCV replicon, higher = more signal, called active from +8 up or from −8 down;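 further: Huh7 hepatoma cells carrying a hepatitis C replication reporter with no stimulus; test concentration not given here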
Active and inactive are the calls of the source.
REPORTED PROPERTY: z-score

{"COMPOUND": "COc1ccc([Si](C)(C)[C@H]2[C@H](CCn3cc([C@H](O)c4ccccc4)nn3)O[C@@]3(C(=O)N(Cc4ccc(N5CCC5=O)cc4)c4ccccc43)[C@@H]2C)cc1", "REPORTED PROPERTY": "z-score", "RESULT": "-3.89 (inactive)"}
{"COMPOUND": "CCOC(=O)C1=CC[C@@H](c2cc(Cl)ccc2Cl)N(S(=O)(=O)c2ccc(C)cc2)[C@H]1c1ccc(OC)cc1", "REPORTED PROPERTY": "z-score", "RESULT": "-4.08 (inactive)"}
{"COMPOUND": "COC(=O)[C@@]1(Cc2ccc(OC)cc2)[C@H]2c3cc(C(=O)N(C)C)n(Cc4nc5ccccc5[nH]4)c3C[C@H]2CN1C(=O)c1ccccc1", "REPORTED PROPERTY": "z-score", "RESULT": "-3.83 (inactive)"}

For reference, reported z-score for O=C1C2C=CC(C(O)c3cc(C(F)(F)F)cc(C(F)(F)F)c3)N(Nc3ccc([N+](=O)[O-])cc3)C2C(=O)N1c1ccccc1 (configuration not stated) stands at -4.58 (inactive)

For reference, reported z-score for O=C(O)[C@H]1C[C@H]2C(=O)N3CCC[C@H]3C(=O)N2[C@H]1c1cccc(OCCO)c1 stands at -0.716 (inactive)

For reference, reported z-score for COc1cc(CO)cc(I)c1O[C@H]1C=C(C(=O)NCCO)C[C@@H](N(CC2CCCCC2)C(=O)c2ccc(C(F)(F)F)cc2)[C@@H]1O stands at -0.494 (inactive)

For reference, reported z-score for CCC[C@@H]1C[C@@]1(CCC)[C@@H](NP(=O)(c1ccccc1)c1ccccc1)c1ccc(Cl)cc1 stands at -1.4 (inactive)
